Entries annotated with measured viability, T/C
Tested on: 126254-015-R-J1-PDC complex spheroid growth, % test/control
Assay: Anticancer human tumor 126254-015-R-J1-PDC patient-derived soft tissue sarcoma cell line growth inhibition [Asc]
Settings: second compound 0.0949 µM; first compound 0.0316 µM; hits give low values
Give just the numeric value; % need not be written.

Some compounds with recorded viability, T/C:
C#Cc1c(F)ccc2cc(O)cc(-c3ncc4c(N5CC6CCC(C5)N6)nc(OCC56CCCN5CC(F)C6)nc4c3F)c12 (centres undefined) + CCN1C(C(=O)NC23CCC(C(=O)O)(CC2)CC3)C(c2cccc(Cl)c2F)C2(C(=O)Nc3cc(Cl)ccc32)C12CCCCC2 :: 101
CCN1CCN(Cc2ccc(Nc3ncc(F)c(-c4cc(F)c5nc(C)n(C(C)C)c5c4)n3)nc2)CC1 + CCN1C(C(=O)NC23CCC(C(=O)O)(CC2)CC3)C(c2cccc(Cl)c2F)C2(C(=O)Nc3cc(Cl)ccc32)C12CCCCC2 :: 97
Cn1ncnc1[C@H]1c2n[nH]c(=O)c3cc(F)cc(c23)N[C@@H]1c1ccc(F)cc1 + CCN1C(C(=O)NC23CCC(C(=O)O)(CC2)CC3)C(c2cccc(Cl)c2F)C2(C(=O)Nc3cc(Cl)ccc32)C12CCCCC2 :: 84.7

Switching to the query record.
Query: Need viability, T/C, item C=C(F)C(=O)N1CCN(c2nc(OCC3CCCN3C)nc3c2CCN(c2cccc4cccc(Cl)c24)C3)CC1CC#N (centres undefined) + CCN1C(C(=O)NC23CCC(C(=O)O)(CC2)CC3)C(c2cccc(Cl)c2F)C2(C(=O)Nc3cc(Cl)ccc32)C12CCCCC2
Reply: 101

====

Tested on: 126254-015-R-J1-PDC complex spheroid growth, % test/control
Test: Anticancer human tumor 126254-015-R-J1-PDC cell line growth inhibition [Asc];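 also: spheroids exposed to compound for seven days; 100% = DMSO vehicle control wells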
Settings: second compound 0.1 µM; first compound 0.0316 µM; hits give low values
endpoint label: viability, T/C (%)
Give just the numeric value; % need not be written.

Some molecules with recorded viability, T/C:
NC1CCC(NC2CC2c2ccccc2)CC1 (centres undefined) + Cc1c(S(C)(=O)=O)c(-c2cc(F)cc(N3CCN(c4ccc(NS(=O)(=O)c5ccc(NC(CCN6CCC(C(=O)OCCCP(=O)(O)O)CC6)CSc6ccccc6)c(S(=O)(=O)C(F)(F)F)c5)cc4)CC3)c2)c(-c2ccc(Cl)cc2)n1C(C)C :: 84
COc1c(OCCCN2CCOCC2)ccc2c3n(c(=NC(=O)c4cnc(N)nc4)nc12)CCN3 + CNC(C)C(=O)NC1CN(S(=O)(=O)c2cccc(S(=O)(=O)N3CCC4CCC(C(=O)NC(c5ccccc5)c5ccccc5)N4C(=O)C(NC(=O)C(C)NC)C3)c2)CCC2CCC(C(=O)NC(c3ccccc3)c3ccccc3)N2C1=O :: 47.9
O=C(c1cc(Cc2n[nH]c(=O)c3ccccc23)ccc1F)N1CCN(C(=O)C2CC2)CC1 + Cc1c(S(C)(=O)=O)c(-c2cc(F)cc(N3CCN(c4ccc(NS(=O)(=O)c5ccc(NC(CCN6CCC(C(=O)OCCCP(=O)(O)O)CC6)CSc6ccccc6)c(S(=O)(=O)C(F)(F)F)c5)cc4)CC3)c2)c(-c2ccc(Cl)cc2)n1C(C)C :: 77.8

Switching to the query record.
Query: Need viability, T/C, item C=C(F)C(=O)N1CCN(c2nc(OCC3CCCN3C)nc3c2CCN(c2cccc4cccc(Cl)c24)C3)CC1CC#N (centres undefined) + CNC(C)C(=O)NC1CN(S(=O)(=O)c2cccc(S(=O)(=O)N3CCC4CCC(C(=O)NC(c5ccccc5)c5ccccc5)N4C(=O)C(NC(=O)C(C)NC)C3)c2)CCC2CCC(C(=O)NC(c3ccccc3)c3ccccc3)N2C1=O
Reply: 61

====

Test system: 126254-015-R-J1-PDC complex spheroid growth, % test/control
Assay: Anticancer human tumor 126254-015-R-J1-PDC cell line growth inhibition [Asc];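 also: spheroids exposed to compound for seven days; 100% = DMSO vehicle control wells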
Details: second compound 0.03 µM; first compound 0.1 µM; hits give low values
endpoint label: viability, T/C

Some compounds with recorded viability, T/C:
CNC(C)C(=O)NC1CN(S(=O)(=O)c2cccc(S(=O)(=O)N3CCC4CCC(C(=O)NC(c5ccccc5)c5ccccc5)N4C(=O)C(NC(=O)C(C)NC)C3)c2)CCC2CCC(C(=O)NC(c3ccccc3)c3ccccc3)N2C1=O (stereo not given) + CCN1C(C(=O)NC23CCC(C(=O)O)(CC2)CC3)C(c2cccc(Cl)c2F)C2(C(=O)Nc3cc(Cl)ccc32)C12CCCCC2 :: 61.4%
NC1CCC(NC2CC2c2ccccc2)CC1 (stereo not given) + CCN1C(C(=O)NC23CCC(C(=O)O)(CC2)CC3)C(c2cccc(Cl)c2F)C2(C(=O)Nc3cc(Cl)ccc32)C12CCCCC2 :: 83.1%
C=CC(=O)N1CCN(c2nc(=O)n(-c3c(C)ccnc3C(C)C)c3nc(-c4c(O)cccc4F)c(F)cc23)C(C)C1 (stereo not given) + CCN1C(C(=O)NC23CCC(C(=O)O)(CC2)CC3)C(c2cccc(Cl)c2F)C2(C(=O)Nc3cc(Cl)ccc32)C12CCCCC2 :: 114%
O=C(c1cc(Cc2n[nH]c(=O)c3ccccc23)ccc1F)N1CCN(C(=O)C2CC2)CC1 + CCN1C(C(=O)NC23CCC(C(=O)O)(CC2)CC3)C(c2cccc(Cl)c2F)C2(C(=O)Nc3cc(Cl)ccc32)C12CCCCC2 :: 87.7%

Switching to the query record.
Query: Need viability, T/C, item O=C(c1ccc(F)c(F)c1Nc1ccc(I)cc1F)N1CC(O)([C@@H]2CCCCN2)C1 + CCN1C(C(=O)NC23CCC(C(=O)O)(CC2)CC3)C(c2cccc(Cl)c2F)C2(C(=O)Nc3cc(Cl)ccc32)C12CCCCC2
Reply: 96.2%

====

Entries annotated with measured viability, T/C
Tested on: 126254-015-R-J1-PDC complex spheroid growth, % test/control
Assay: Anticancer human tumor 126254-015-R-J1-PDC cell line growth inhibition [Asc];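 also: spheroids exposed to compound for seven days; 100% = DMSO vehicle control wells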
Settings: second compound 0.316 µM; first compound 0.00316 µM; hits give low values
Give just the numeric value; % need not be written.

CNC(C)C(=O)NC1CN(S(=O)(=O)c2cccc(S(=O)(=O)N3CCC4CCC(C(=O)NC(c5ccccc5)c5ccccc5)N4C(=O)C(NC(=O)C(C)NC)C3)c2)CCC2CCC(C(=O)NC(c3ccccc3)c3ccccc3)N2C1=O (configuration not stated) + Cc1c(S(C)(=O)=O)c(-c2cc(F)cc(N3CCN(c4ccc(NS(=O)(=O)c5ccc(NC(CCN6CCC(C(=O)OCCCP(=O)(O)O)CC6)CSc6ccccc6)c(S(=O)(=O)C(F)(F)F)c5)cc4)CC3)c2)c(-c2ccc(Cl)cc2)n1C(C)C :: 85.8

Switching to the query record.
Query: Request: viability, T/C, test system 126254-015-R-J1-PDC complex spheroid growth, % test/control, entry NC1CCC(NC2CC2c2ccccc2)CC1 (configuration not stated) + Cc1c(S(C)(=O)=O)c(-c2cc(F)cc(N3CCN(c4ccc(NS(=O)(=O)c5ccc(NC(CCN6CCC(C(=O)OCCCP(=O)(O)O)CC6)CSc6ccccc6)c(S(=O)(=O)C(F)(F)F)c5)cc4)CC3)c2)c(-c2ccc(Cl)cc2)n1C(C)C
Reply: 75.3

====

Test system: 126254-015-R-J1-PDC complex spheroid growth, % test/control
Assay: Anticancer human tumor 126254-015-R-J1-PDC cell line growth inhibition [Asc];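 also: spheroids exposed to compound for seven days; 100% = DMSO vehicle control wells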
Conditions: second compound 0.316 µM; first compound 0.01 µM; hits give low values
Entries annotated with measured viability, T/C
Give just the numeric value; % need not be written.

Cn1ncnc1[C@H]1c2n[nH]c(=O)c3cc(F)cc(c23)N[C@@H]1c1ccc(F)cc1 + Cc1c(S(C)(=O)=O)c(-c2cc(F)cc(N3CCN(c4ccc(NS(=O)(=O)c5ccc(NC(CCN6CCC(C(=O)OCCCP(=O)(O)O)CC6)CSc6ccccc6)c(S(=O)(=O)C(F)(F)F)c5)cc4)CC3)c2)c(-c2ccc(Cl)cc2)n1C(C)C :: 69.2
COc1c(OCCCN2CCOCC2)ccc2c3n(c(=NC(=O)c4cnc(N)nc4)nc12)CCN3 + Cc1c(S(C)(=O)=O)c(-c2cc(F)cc(N3CCN(c4ccc(NS(=O)(=O)c5ccc(NC(CCN6CCC(C(=O)OCCCP(=O)(O)O)CC6)CSc6ccccc6)c(S(=O)(=O)C(F)(F)F)c5)cc4)CC3)c2)c(-c2ccc(Cl)cc2)n1C(C)C :: 76.6

Query: Need viability, T/C, item Cn1ncnc1[C@H]1c2n[nH]c(=O)c3cc(F)cc(c23)N[C@@H]1c1ccc(F)cc1 + CNC(C)C(=O)NC1CN(S(=O)(=O)c2cccc(S(=O)(=O)N3CCC4CCC(C(=O)NC(c5ccccc5)c5ccccc5)N4C(=O)C(NC(=O)C(C)NC)C3)c2)CCC2CCC(C(=O)NC(c3ccccc3)c3ccccc3)N2C1=O
Reply: 51.8

====

Tested on: 126254-015-R-J1-PDC complex spheroid growth, % test/control
Experiment: Anticancer human tumor 126254-015-R-J1-PDC cell line growth inhibition [Asc];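 also: spheroids exposed to compound for seven days; 100% = DMSO vehicle control wells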
Settings: second compound 1 µM; first compound 0.316 µM; hits give low values
Entries annotated with measured viability, T/C
Give just the numeric value; % need not be written.

Some molecules with recorded viability, T/C:
O=C(c1cc(Cc2n[nH]c(=O)c3ccccc23)ccc1F)N1CCN(C(=O)C2CC2)CC1 + Cc1c(S(C)(=O)=O)c(-c2cc(F)cc(N3CCN(c4ccc(NS(=O)(=O)c5ccc(NC(CCN6CCC(C(=O)OCCCP(=O)(O)O)CC6)CSc6ccccc6)c(S(=O)(=O)C(F)(F)F)c5)cc4)CC3)c2)c(-c2ccc(Cl)cc2)n1C(C)C :: 65.7
O=C(c1cc(Cc2n[nH]c(=O)c3ccccc23)ccc1F)N1CCN(C(=O)C2CC2)CC1 + CNC(C)C(=O)NC1CN(S(=O)(=O)c2cccc(S(=O)(=O)N3CCC4CCC(C(=O)NC(c5ccccc5)c5ccccc5)N4C(=O)C(NC(=O)C(C)NC)C3)c2)CCC2CCC(C(=O)NC(c3ccccc3)c3ccccc3)N2C1=O :: 61.4

Switching to the query record.
Query: Need viability, T/C, item C#Cc1c(F)ccc2cc(O)cc(-c3ncc4c(N5CC6CCC(C5)N6)nc(OCC56CCCN5CC(F)C6)nc4c3F)c12 (stereo not drawn) + Cc1c(S(C)(=O)=O)c(-c2cc(F)cc(N3CCN(c4ccc(NS(=O)(=O)c5ccc(NC(CCN6CCC(C(=O)OCCCP(=O)(O)O)CC6)CSc6ccccc6)c(S(=O)(=O)C(F)(F)F)c5)cc4)CC3)c2)c(-c2ccc(Cl)cc2)n1C(C)C
Reply: 73.8
